B1: library; a variant is named by its letters at N, in order (parent)
chain: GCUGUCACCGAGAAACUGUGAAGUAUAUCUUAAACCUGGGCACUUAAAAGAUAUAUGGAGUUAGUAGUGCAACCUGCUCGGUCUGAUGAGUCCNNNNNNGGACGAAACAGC

variants of: B1; test: normalized RNA/DNA level with ligand (relative to sTRSVctl = 100) (log10 (% of sTRSVctl)); HEK293T; ligand: cyclic di-GMP (c-di-GMP-II aptamer); ligand concentration (+) RNA-Seq: 1 mM; higher = less ribozyme self-cleavage, higher mRNA level; details: reporter: mCherry (pCS4076), ligand present: yes
readout: normalized RNA/DNA level with ligand (log10)

mutant id	test value
ACAACC	1.82
AUGAGU	1.73
AAACAA	1.62
CAGCUU	1.75
UGUUUA	1.89
ACUCAC	1.81
CCAUUA	1.6
ACAUCG	1.71
UUAAGU	1.82
AUAGCA	1.81
CCUGCU	1.84
CUACCC	1.88
CAUGGC	1.84
CCUUUC	1.85
UCUAUG	1.85
CAAGCC	1.85
AUAGAC	1.76
UACAAA	1.8
UACCCU	1.87
GCAUGA	1.54
GGCACC	1.82
CCACCA	1.82
CUUGAA	1.55
UUAACU	1.87
GCCCCA	1.86
UACUAU	1.83
UCGUAA	1.64
GAACGC	1.78
GCAGAG	1.58
UAGAUU	1.79
GAGGAA	1.72
UUGCGA	1.88
CACCCG	1.94
UUAGGC	1.83
CUUAGG	1.89
GUUAUC	1.74
UCGACG	1.87
ACGUCA	1.76
UUGUUA	1.81
UGUCGA	1.81
GAAUGC	1.75
UAACAU	1.76
GGCCUA	1.83
CGCCCU	1.87
UCCGGG	1.93
CAUGGU	1.77
